Test system: XIP peptide (Xip251-270)
Assay: small-molecule binders of XIP peptide, primary screen, biochemical, small-molecule microarray, fluorescence 635/667 nm, 0.5 µg/mL protein (AID 1183)
Settings: small-molecule microarray binding, fluorescence 635 nm; higher = more signal
// classify(record): look up composite z-score in ranges band 1 = under 0.3, band 2 = from 0.3 up to 0.7, band 3 = 0.7 and over

Molecule	Test System	Cat
CCOC(=O)C1=CCN(S(=O)(=O)c2ccc(C)cc2)C1c1ccccc1 (stereo unspecified)	XIP peptide (Xip251-270)	band 3

Kindly review the next molecule as well.
For this molecule, which bin applies? [N-]=[N+]=NC[C@H](Cc1ccccc1)NC(=O)c1ccccc1
band 1

###

Assay: binders of probe aHhip on microarray, primary screen, stem cell growth factor project, biochemical, small-molecule microarray, fluorescence 635/667 (AID 1087);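 also: score merges spot fluorescence at 667nm with spot signal to noise ratio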
Settings: higher = more signal
For each record, write down the corresponding composite z-score.
Answers are plain numbers.

Molecule	composite z-score
CCOC(=O)C1=C[C@@H](C(C)(C)C)N(S(=O)(=O)c2ccc(C)cc2)[C@H]1c1ccccc1	0.206

// batch mode: one composite z-score value per listed entry
1. COC(=O)C(CC#Cc1ccc2c(c1)[C@]1(C(=O)N2)[C@H](c2ccc(O)cc2)N2[C@H](c3ccccc3)[C@H](c3ccccc3)OC(=O)[C@H]2[C@@H]1C(=O)N1CCCCCCC1)C(=O)OC
2. C[C@@H]1ON(c2ccc(I)cc2)[C@H](c2ccc(OC(=O)OC(C)(C)C)cc2)[C@H]1C(=O)N1C(=O)OC[C@H]1Cc1ccccc1
3. CCCCCN1CC=CC23O[C@@H]4/C=C\CCC(C)OC(=O)C4[C@H]2C(=O)N(CCCCCCO)[C@@H]3C1=O (stereo partly drawn)
4. [N-]=[N+]=Nc1ccccc1C[C@]1(C(=O)NCc2ccccc2)COC(c2ccc(OCCCO)cc2)=N1
5. Cc1ccccc1C(O)C1C=CC2C(=O)NC(=O)C2N1Nc1ccc(Cl)cc1Cl (stereo not drawn)
6. C=C(C(=O)CC[C@@H](OC(=O)c1ccccc1-c1ccccc1C(=O)O)c1ccccc1OCCO)C(C)C
7. C=C[C@@H](C)[C@H](O)c1ccc(OCCO)cc1

0.17
-0.0672
-0.0994
-0.207
-0.283
0.233
-0.236

###

Provide the reported z-score of each item.
Experiment: A549 lung cancer cell viability effects, profiling panel, resazurin fluorescence, 24 h, PK04 Diversity Set (AID 1171)
Conditions: higher = more signal, called active from +8 up or from −8 down
Numbers only.

Compound	z-score
CN1C(=O)C2C=CC(C(O)c3ccc(F)cc3)N(NC(=O)OC(C)(C)C)C2C1=O (stereo not drawn)	-1.18
C=C(/C(=C/C[C@@H](OC(C)=O)c1ccc(CO)o1)c1cc(C(=O)OC)ccc1OC)C(C)C	-0.0571
COc1ccc([Si](C)(C)[C@@H]2[C@@H](CC(=O)N3Cc4ccccc4C[C@H]3CO)O[C@]3(C(=O)N(Cc4ccc(N5CCC5=O)cc4)c4ccccc43)[C@H]2C)cc1	-0.61
CN(C)C(=O)[C@@]1(Cc2ccccc2N=[N+]=[N-])N=C(c2ccc(OCCCO)cc2)O[C@H]1c1ccccc1	-2.2
COC(=O)C(CC#Cc1ccc2c(c1)[C@]1(C(=O)N2)[C@H](c2ccc(OCCO)cc2)N2[C@H](c3ccccc3)[C@H](c3ccccc3)OC(=O)[C@H]2[C@@H]1C(=O)N1CCN(c2ncccn2)CC1)C(=O)OC	0.352

Please look at the items below and tell me z-score for each one, in order.
1. CC(C)C(CO)N1C(=O)[C@@H]2[C@H]3C(=O)OCC=C[C@H]3OC23C=CCN(C(C)(C)C)C(=O)[C@@H]13 (stereo partly drawn)
2. C=CCC(OC(C)=O)[C@@H]1[C@@H](N(Cc2ccc(-c3cccc(C(F)(F)F)c3)o2)C(=O)Cc2ccc(OC)cc2)c2cc(OCCCO)ccc2N1C(=O)Cc1ccc2ccccc2c1 (stereo partly drawn)
3. CC(CO)N1C(=O)[C@@H]2[C@H]3C(=O)OCC=C[C@H]3OC23C=CCN(c2ccc(Cl)cc2)C(=O)[C@@H]13 (stereo partly drawn)
4. CN1C=C(C(=O)OCCS(C)(=O)=O)C(C(=O)OCCS(C)(=O)=O)=CC(c2ccc(CO)cc2)=CC1c1cccs1 (stereo not drawn)
5. CN(C)CCCNC(=O)[C@@H]1c2ccccc2C(=O)N(C2CCCCC2)[C@H]1c1ccc(CO)cc1
6. COCCOC(=O)N1C(=O)[C@@]2(c3cc(C#CCCO)ccc31)[C@H](C(N)=O)[C@H]1C(=O)O[C@H](c3ccccc3)[C@H](c3ccccc3)N1[C@@H]2c1ccc(OCCO)cc1
7. O=C(CS)NCCCCCNC(=O)[C@@H]1C[C@@H]2C(=O)N[C@@H](Cc3ccccc3)C(=O)N2[C@@H]1c1cccc(OCCO)c1
8. O=C1C2C=CC(C(O)c3cccc(O)c3)N(Nc3ccccc3)C2C(=O)N1c1ccccc1 (stereo not drawn)

-0.166
-0.674
0.957
0.458
0.887
-0.0958
-0.488
-0.224

Can you give me z-score for all of these, one by one?
1. Cc1ccc(N2C(=O)c3ccccc3[C@](C)(C(=O)NCc3ccccc3)[C@@H]2c2ccc(CO)cc2)nc1
2. COC(=O)C(CC#Cc1ccc2c(c1)[C@]1(C(=O)N2)[C@H](c2ccc(O)cc2)N2[C@H](c3ccccc3)[C@H](c3ccccc3)OC(=O)[C@H]2[C@@H]1C(=O)N1CCCCCCC1)C(=O)OC
3. O=C1O[C@H](c2ccccc2)[C@H](c2ccccc2)N2[C@H]1[C@@H](C(=O)Nc1nc3ccccc3s1)[C@]1(C(=O)Nc3ccc(C#CC4=CCCCC4)cc31)[C@H]2c1ccc(O)cc1
4. CC=CC(O)C1C=CC2C(=O)NC(=O)C2N1Nc1ccccn1 (stereo not drawn)
5. CC(C)C[C@@H]1NC(=O)CNC(=O)[C@@]23C(=O)N[C@@H](Cc4ccccc4)C2[C@H](C)[C@@]2(C)O[C@H]2C3/C=C/C/C=C\CNC1=O (stereo partly drawn)
6. CCCCCN1CC=CC23O[C@@H]4/C=C\CCC(C)OC(=O)C4[C@H]2C(=O)N(CCCCCCO)[C@@H]3C1=O (stereo partly drawn)
7. C=C(/C(=C/C[C@@H](OC(C)=O)c1ccc(OCCO)cc1)c1cc(C(=O)OC)ccc1OC)C(C)C

1. -0.0526
2. -0.636
3. 0.229
4. -1.14
5. 0.547
6. 0.944
7. 0.627

For each entry beneath this line, provide reported z-score.
1. COc1ccc(C(=O)Nc2cccc(CN3C(=O)[C@]4(O[C@H](CCn5cc([C@H](O)c6ccccc6)nn5)[C@@H]([Si](C)(C)c5ccc(OC)cc5)[C@@H]4C)c4ccccc43)c2)cc1
2. [N-]=[N+]=NCc1ccccc1[C@H]1OC(c2ccc(OCCCO)cc2)=N[C@@]1(Cc1ccccc1)C(=O)NCCN1CCOCC1
3. COC(=O)[C@@]1(Cc2ccccc2CN=[N+]=[N-])N=C(c2ccc(OCCCO)cc2)O[C@H]1c1ccccc1CN=[N+]=[N-]

1. -2.56
2. 1.19
3. -2.82

Batch request: z-score per item, same order as input.
1. COC(=O)[C@@]1(Cc2ccc(OC)cc2)[C@H]2c3cc(C(=O)N4CCCC4)n(Cc4ccc(OC(F)(F)F)cc4)c3C[C@H]2CN1C(=O)c1ccccc1
2. [N-]=[N+]=NCc1ccccc1C[C@@]1(C(=O)N2CCCCC2)N=C(c2ccc(OCCCO)cc2)O[C@@H]1c1ccccc1CN=[N+]=[N-]

[-0.995, 0.742]

Batch lookup, z-score per entry.
1. CCOC(=O)C1=C[C@@H](C(C)(C)C)N(S(=O)(=O)c2ccc(C)cc2)[C@H]1c1ccc(C)cc1
2. C=C(CCCC)C(=O)CC[C@@H](OC(=O)c1cccnc1)c1ccc(OCCO)cc1
3. C=C(C(=O)CC[C@H](OC(=O)c1ccccc1-c1ccccc1C(=O)O)c1ccccc1OCCO)C(C)C

0.51
0.116
0.109
